pIC50 listing for selected molecules.
target: h-P2X4R (Homo sapiens, UniProt Q99571); test: Ca2+ influx assay; assay type: cell-based
pIC50: −log10 of the molar value.

Solved entries (count: 5):
>>> print(df.to_string())
                            smiles_notation                       target_under_test  result
0   CC(=NNC(=O)c1ccccc1NS(C)(=O)=O)c1sccc1C  h-P2X4R (Homo sapiens, UniProt Q99571)  < 4.30
1  CC(=NNC(=O)c1ccccc1NS(C)(=O)=O)c1ccc(C)s1  h-P2X4R (Homo sapiens, UniProt Q99571)    5.49
2  CC(=NNC(=O)c1ccccc1NS(C)(=O)=O)c1ccc(Br)cc1  h-P2X4R (Homo sapiens, UniProt Q99571)  < 4.30
3  COc1ccc(C(C)=NNC(=O)c2ccccc2NS(C)(=O)=O)cc1  h-P2X4R (Homo sapiens, UniProt Q99571)  < 4.30
4  CC(=NNC(=O)c1ccccc1NS(C)(=O)=O)c1ccc([N+](=O)[O-])s1  h-P2X4R (Homo sapiens, UniProt Q99571)    5.61

Noted for CC(=NNC(=O)c1ccccc1NS(C)(=O)=O)c1ccccc1 : its pIC50 reads < 4.30

The reported value for CC(=NNC(=O)c1ccccc1NS(C)(=O)=O)c1ccc(I)cc1 in terms of pIC50 is < 4.30

Entry under test: CC(=NNC(=O)c1ccccc1NS(C)(=O)=O)c1ccc(Cl)cc1 . Its pIC50 was < 4.30

For reference, reported pIC50 for CC(=NNC(=O)c1ccccc1NS(C)(=O)=O)c1ccccc1F stands at < 4.30

Given item CC(=NNC(=O)c1ccccc1NS(C)(=O)=O)c1ccc(N)cc1 , the value recorded as its pIC50 is < 4.30

Reported pIC50 of CC(=NNC(=O)c1ccccc1NS(C)(=O)=O)c1cccc(Br)c1 : < 4.30

So for CC(=NNC(=O)c1ccccc1NS(C)(=O)=O)c1ccc(Cl)s1 , the logged pIC50 turned out to be 5.39

Value of measured pIC50 for the entry CC(=NNC(=O)c1ccccc1NS(C)(=O)=O)c1sccc1Cl : 5.79

In plain terms, CC(=NNC(=O)c1ccccc1NS(C)(=O)=O)c1cccs1 has a documented pIC50 of < 4.30

Lookup result for CC(=NNC(=O)c1ccccc1NS(C)(=O)=O)c1cc(C)cs1 ; measured pIC50: 5.41

====

# key: entry, value: cytotoxicity at 24 h, 50 µM
assay: Cytotoxicity assay; type: cell-based; conditions: human, nontransfected 1321N1 astrocytoma cells
Respond numerically; units are % and should not be typed.

# annotated cases, reported cytotoxicity at 24 h, 50 µM shown
                            smiles_notation            reported_endpoint  numeric_readout
0  CC(=NNC(=O)c1ccccc1NS(C)(=O)=O)c1cccc(Br)c1  cytotoxicity at 24 h, 50 µM             15.1
1  CC(=NNC(=O)c1ccccc1NS(C)(=O)=O)c1ccc(C)s1  cytotoxicity at 24 h, 50 µM             1.57
2   CC(=NNC(=O)c1ccccc1NS(C)(=O)=O)c1sccc1C  cytotoxicity at 24 h, 50 µM             10.7
3  CC(=NNC(=O)c1ccccc1NS(C)(=O)=O)c1cc(C)cs1  cytotoxicity at 24 h, 50 µM             5.98

Consider the record given below.
# molecule CC(=NNC(=O)c1ccccc1NS(C)(=O)=O)c1ccc(Br)cc1 ; its cytotoxicity at 24 h, 50 µM = 16.8

====

target: h-P2X2R (Homo sapiens, UniProt Q9UBL9); assay: Ca2+ influx assay; assay type: cell-based; settings: 1321-N1, read-out: h-P2X2 % inhibition
Sequence (Q9UBL9 whole entry): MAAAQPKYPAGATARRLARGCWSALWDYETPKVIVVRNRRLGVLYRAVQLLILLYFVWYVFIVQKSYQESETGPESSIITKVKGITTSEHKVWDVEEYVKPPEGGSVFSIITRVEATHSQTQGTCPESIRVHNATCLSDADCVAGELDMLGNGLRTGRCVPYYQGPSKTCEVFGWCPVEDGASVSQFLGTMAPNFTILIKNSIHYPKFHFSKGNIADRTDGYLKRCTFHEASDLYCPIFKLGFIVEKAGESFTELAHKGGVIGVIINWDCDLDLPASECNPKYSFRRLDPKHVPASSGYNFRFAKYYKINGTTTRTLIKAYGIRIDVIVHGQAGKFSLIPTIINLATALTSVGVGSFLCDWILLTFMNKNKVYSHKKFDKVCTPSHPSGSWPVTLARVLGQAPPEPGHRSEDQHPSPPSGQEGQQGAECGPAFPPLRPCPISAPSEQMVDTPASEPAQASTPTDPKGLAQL
reported_endpoint: inhibition at 50 µM (%)

>>> print(df.to_string())
                                   compound    reported_endpoint  numeric_readout
0  CC(=NNC(=O)c1ccccc1NS(C)(=O)=O)c1ccc(Cl)cc1 [6d]  inhibition at 50 µM               15
1  CC(=NNC(=O)c1ccccc1NS(C)(=O)=O)c1ccc([N+](=O)[O-])s1 [7g]  inhibition at 50 µM               26

I: CC(=NNC(=O)c1ccccc1NS(C)(=O)=O)c1ccccc1 [6a]
II: CC(=NNC(=O)c1ccccc1NS(C)(=O)=O)c1ccc(Cl)s1 [7f]
III: CC(=NNC(=O)c1ccccc1NS(C)(=O)=O)c1cccc(Br)c1 [6c]
Q: // ranking: key=inhibition at 50 µM, reverse=True Reply with the labels, ordered as the question asks.
Ans: II, I, III
(II: 37%, I: 20%, III: 0%)

====

assay: Cytotoxicity assay; assay type: cell-based; settings: human, nontransfected 1321N1 astrocytoma cells
reported_endpoint: cytotoxicity at 24 h, 50 µM (%)
Could you give me the number in %? Just the number is fine.

>>> df
                                   compound  numeric_readout
0  CC(=NNC(=O)c1ccccc1NS(C)(=O)=O)c1ccccc1 [6a]               14
1  CC(=NNC(=O)c1ccccc1NS(C)(=O)=O)c1sccc1Cl [7e]             8.33
2  CC(=NNC(=O)c1ccccc1NS(C)(=O)=O)c1ccc(Cl)cc1 [6d]             6.96
3  CC(=NNC(=O)c1ccccc1NS(C)(=O)=O)c1ccc([N+](=O)[O-])s1 [7g]             23.8
4  CC(=NNC(=O)c1ccccc1NS(C)(=O)=O)c1ccc(Cl)s1 [7f]             11.6

Noted for COc1ccc(C(C)=NNC(=O)c2ccccc2NS(C)(=O)=O)cc1 [6g] : its cytotoxicity at 24 h, 50 µM reads 5.29

====

biological target: h-P2X2R (Homo sapiens); test: Ca2+ influx assay
reported_endpoint: IC50 (nM)

// known answers, use as guide
compound	reported_endpoint	numeric_readout
CC(=NNC(=O)c1ccccc1NS(C)(=O)=O)c1sccc1Cl [7e]	IC50	2170
CC(=NNC(=O)c1ccccc1NS(C)(=O)=O)c1cc(C)cs1 [7c]	IC50	1590
CC(=NNC(=O)c1ccccc1NS(C)(=O)=O)c1cccs1 [7a]	IC50	1570
CC(=NNC(=O)c1ccccc1NS(C)(=O)=O)c1ccccc1F [6b]	IC50	1910
CC(=NNC(=O)c1ccccc1NS(C)(=O)=O)c1ccc(I)cc1 [6f]	IC50	3520

A: COc1ccc(C(C)=NNC(=O)c2ccccc2NS(C)(=O)=O)cc1 [6g]
B: CC(=NNC(=O)c1ccccc1NS(C)(=O)=O)c1sccc1C [7b]
C: CC(=NNC(=O)c1ccccc1NS(C)(=O)=O)c1ccc(N)cc1 [6h]
D: Nc1c(S(=O)(=O)O)cc(Nc2ccc(Nc3nc(Cl)nc(Nc4cccc(S(=O)(=O)O)c4)n3)c(S(=O)(=O)O)c2)c2c1C(=O)c1ccccc1C2=O [RB-2, Reactive Blue 2, reference compound]
Q: Please list these compounds in decreasing order of IC50. List the labels according to the requested ordering.
Ans: A, B, D, C

A: CC(=NNC(=O)c1ccccc1NS(C)(=O)=O)c1ccc(Br)cc1 [6e]
B: CC(=NNC(=O)c1ccccc1NS(C)(=O)=O)c1ccc(C)s1 [7d]
Q: Between A and B , which one shows the smaller IC50 number? Could you answer with the label of the item you picked?
Ans: B

====

molecular target: UniProtKB Q99572; test: Ca2+ influx assay
Sequence (Q99572 whole entry): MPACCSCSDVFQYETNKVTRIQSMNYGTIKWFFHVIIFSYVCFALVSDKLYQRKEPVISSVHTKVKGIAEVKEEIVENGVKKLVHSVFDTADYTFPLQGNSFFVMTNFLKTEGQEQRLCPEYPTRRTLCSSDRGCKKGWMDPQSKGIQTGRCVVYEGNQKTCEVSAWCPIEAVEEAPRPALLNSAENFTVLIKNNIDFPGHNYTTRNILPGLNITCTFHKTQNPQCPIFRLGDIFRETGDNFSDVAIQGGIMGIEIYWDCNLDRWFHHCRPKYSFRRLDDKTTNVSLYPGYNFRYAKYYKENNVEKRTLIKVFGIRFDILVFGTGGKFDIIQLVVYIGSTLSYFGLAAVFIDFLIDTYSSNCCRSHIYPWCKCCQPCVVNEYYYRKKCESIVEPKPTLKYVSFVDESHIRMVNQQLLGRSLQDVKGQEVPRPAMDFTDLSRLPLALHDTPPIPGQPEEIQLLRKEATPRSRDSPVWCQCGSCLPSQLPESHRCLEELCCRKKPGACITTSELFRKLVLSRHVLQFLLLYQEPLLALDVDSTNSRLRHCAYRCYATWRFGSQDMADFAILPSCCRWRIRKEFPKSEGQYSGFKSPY
reported_endpoint: IC50 (nM)

compound	reported_endpoint	units_of_measure	numeric_readout
COc1ccc(C(C)=NNC(=O)c2ccccc2NS(C)(=O)=O)cc1	IC50	nM	2090
CC(=NNC(=O)c1ccccc1NS(C)(=O)=O)c1ccc(Cl)s1	IC50	nM	1160
Nc1c(S(=O)(=O)O)cc(Nc2ccc(Nc3nc(Cl)nc(Nc4cccc(S(=O)(=O)O)c4)n3)c(S(=O)(=O)O)c2)c2c1C(=O)c1ccccc1C2=O [RB-2, Reactive Blue 2, reference compound]	IC50	nM	2790

a: CC(=NNC(=O)c1ccccc1NS(C)(=O)=O)c1sccc1Cl
b: CC(=NNC(=O)c1ccccc1NS(C)(=O)=O)c1ccc(I)cc1
Q: Quick check, higher IC50 between a and b ? Your choice should be expressed through its label.
Ans: b
(b: 10000 nM, a: 1700 nM)

====

Molecular target: h-P2X4R (Homo sapiens, UniProt Q99571)
Sequence (Q99571 1-388): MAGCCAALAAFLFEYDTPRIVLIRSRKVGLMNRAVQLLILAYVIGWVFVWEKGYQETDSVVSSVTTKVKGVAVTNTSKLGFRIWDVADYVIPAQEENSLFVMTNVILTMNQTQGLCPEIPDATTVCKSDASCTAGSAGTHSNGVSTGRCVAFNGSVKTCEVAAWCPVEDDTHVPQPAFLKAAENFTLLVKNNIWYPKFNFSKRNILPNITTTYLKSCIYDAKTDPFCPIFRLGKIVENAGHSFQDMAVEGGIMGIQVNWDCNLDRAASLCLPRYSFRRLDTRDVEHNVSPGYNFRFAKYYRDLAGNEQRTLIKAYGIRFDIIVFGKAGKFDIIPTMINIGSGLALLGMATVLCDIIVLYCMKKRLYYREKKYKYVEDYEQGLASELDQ
Experiment: Ca2+ influx assay
Type: cell-based
reported_endpoint: EC50 (µM)
# unit: µM | format: bare number

EC50 of Nc1ncnc2c1ncn2[C@@H]1O[C@H](COP(=O)(O)OP(=O)(O)OP(=O)(O)O)[C@@H](O)[C@H]1O [ATP, adenosine triphosphate, reference compound] , assay on h-P2X4R (Homo sapiens, UniProt Q99571), is 9.29
